- System: Pyricularia grisea
- method notes: Antifungal activity against Magnaporthe grisea infected finger millet seed assessed as fungal occurrence at 10 g/L after 1 week by stereoscopic analysis (reference value: 12.5 +/- 0.35%)
- Format: functional
endpoint: Activity

(Q) Which measured Activity belongs to COc1ccc(C(=O)c2cc(C)ccc2OCc2nnc(N3C(=O)C(Cl)C3c3cccc(Br)c3)o2)cc1 (stereo unspecified) , tested on Pyricularia grisea?
(A) 2.5%

(Q) Which measured Activity belongs to Cc1ccc(C(=O)c2cc(C)ccc2OCc2nnc(N3C(=O)C(Cl)C3c3cccc(Br)c3)o2)cc1 (stereo unspecified) , tested on Pyricularia grisea?
(A) 4%

(Q) Which measured Activity belongs to Cc1ccc(OCc2nnc(N3C(=O)C(Cl)C3c3cccc(Br)c3)o2)c(C(=O)c2ccc(Cl)cc2)c1 (stereo unspecified) , tested on Pyricularia grisea?
(A) 3%

(Q) Which measured Activity belongs to Cc1ccc(OCc2nnc(N3C(=O)C(Cl)C3c3cccc(Br)c3)o2)c(C(=O)c2ccccc2Cl)c1 (stereo unspecified) , tested on Pyricularia grisea?
(A) 3%

(Q) Which measured Activity belongs to Cc1cc(OCc2nnc(N3C(=O)C(Cl)C3c3cccc(Br)c3)o2)c(C(=O)c2ccccc2)cc1Cl (stereo unspecified) , tested on Pyricularia grisea?
(A) 2%

(Q) Which measured Activity belongs to O=C(c1cccc(Cl)c1)c1cc(Cl)ccc1OCc1nnc(N2C(=O)C(Cl)C2c2cccc(Br)c2)o1 (stereo unspecified) , tested on Pyricularia grisea?
(A) 1%

(Q) Which measured Activity belongs to COC(=O)Nc1nc2ccccc2[nH]1 , tested on Pyricularia grisea?
(A) 1.5%

(Q) Which measured Activity belongs to O=C(c1ccccc1)c1ccc(Br)cc1OCc1nnc(N2C(=O)C(Cl)C2c2cccc(Br)c2)o1 (stereo unspecified) , tested on Pyricularia grisea?
(A) 3.5%

(Q) Which measured Activity belongs to Cc1ccc(OCc2nnc(N3C(=O)C(Cl)C3c3cccc(Br)c3)o2)c(C(=O)c2ccccc2)c1 (stereo unspecified) , tested on Pyricularia grisea?
(A) 3.5%

(Q) Which measured Activity belongs to Cc1ccc(OCc2nnc(N3C(=O)C(Cl)C3c3cccc(Br)c3)o2)c(C(=O)c2cccc(Cl)c2)c1 (stereo unspecified) , tested on Pyricularia grisea?
(A) 3.5%

(Q) Which measured Activity belongs to O=C(c1ccccc1)c1cc(Cl)ccc1OCc1nnc(N2C(=O)C(Cl)C2c2cccc(Br)c2)o1 (stereo unspecified) , tested on Pyricularia grisea?
(A) 5%

---

- System: Pyricularia grisea
- method notes: Antifungal activity against Magnaporthe grisea infected finger millet seed assessed as fungal occurrence at 40 g/L after 1 week by stereoscopic analysis (reference value: 12.5 +/- 0.35%)
- Format: functional
Use TRUE when the recorded Activity is no lower than 2%; use FALSE when it is lower.

(Q) API: above_or_equal(metric=Activity, cutoff=2%) for item Cc1ccc(OCc2nnc(N3C(=O)C(Cl)C3c3cccc(Br)c3)o2)c(C(=O)c2cccc(Cl)c2)c1 (stereo unspecified)
(A) TRUE

(Q) API: above_or_equal(metric=Activity, cutoff=2%) for item Cc1ccc(C(=O)c2cc(C)ccc2OCc2nnc(N3C(=O)C(Cl)C3c3cccc(Br)c3)o2)cc1 (stereo unspecified)
(A) FALSE

(Q) API: above_or_equal(metric=Activity, cutoff=2%) for item O=C(c1ccccc1)c1cc(Cl)ccc1OCc1nnc(N2C(=O)C(Cl)C2c2cccc(Br)c2)o1 (stereo unspecified)
(A) TRUE

(Q) API: above_or_equal(metric=Activity, cutoff=2%) for item O=C(c1ccccc1)c1ccc(Br)cc1OCc1nnc(N2C(=O)C(Cl)C2c2cccc(Br)c2)o1 (stereo unspecified)
(A) TRUE

(Q) API: above_or_equal(metric=Activity, cutoff=2%) for item COc1ccc(C(=O)c2cc(C)ccc2OCc2nnc(N3C(=O)C(Cl)C3c3cccc(Br)c3)o2)cc1 (stereo unspecified)
(A) FALSE
